Target: E. coli RNA Polymerase (Escherichia coli)
Sequence (P0A8V2 whole entry): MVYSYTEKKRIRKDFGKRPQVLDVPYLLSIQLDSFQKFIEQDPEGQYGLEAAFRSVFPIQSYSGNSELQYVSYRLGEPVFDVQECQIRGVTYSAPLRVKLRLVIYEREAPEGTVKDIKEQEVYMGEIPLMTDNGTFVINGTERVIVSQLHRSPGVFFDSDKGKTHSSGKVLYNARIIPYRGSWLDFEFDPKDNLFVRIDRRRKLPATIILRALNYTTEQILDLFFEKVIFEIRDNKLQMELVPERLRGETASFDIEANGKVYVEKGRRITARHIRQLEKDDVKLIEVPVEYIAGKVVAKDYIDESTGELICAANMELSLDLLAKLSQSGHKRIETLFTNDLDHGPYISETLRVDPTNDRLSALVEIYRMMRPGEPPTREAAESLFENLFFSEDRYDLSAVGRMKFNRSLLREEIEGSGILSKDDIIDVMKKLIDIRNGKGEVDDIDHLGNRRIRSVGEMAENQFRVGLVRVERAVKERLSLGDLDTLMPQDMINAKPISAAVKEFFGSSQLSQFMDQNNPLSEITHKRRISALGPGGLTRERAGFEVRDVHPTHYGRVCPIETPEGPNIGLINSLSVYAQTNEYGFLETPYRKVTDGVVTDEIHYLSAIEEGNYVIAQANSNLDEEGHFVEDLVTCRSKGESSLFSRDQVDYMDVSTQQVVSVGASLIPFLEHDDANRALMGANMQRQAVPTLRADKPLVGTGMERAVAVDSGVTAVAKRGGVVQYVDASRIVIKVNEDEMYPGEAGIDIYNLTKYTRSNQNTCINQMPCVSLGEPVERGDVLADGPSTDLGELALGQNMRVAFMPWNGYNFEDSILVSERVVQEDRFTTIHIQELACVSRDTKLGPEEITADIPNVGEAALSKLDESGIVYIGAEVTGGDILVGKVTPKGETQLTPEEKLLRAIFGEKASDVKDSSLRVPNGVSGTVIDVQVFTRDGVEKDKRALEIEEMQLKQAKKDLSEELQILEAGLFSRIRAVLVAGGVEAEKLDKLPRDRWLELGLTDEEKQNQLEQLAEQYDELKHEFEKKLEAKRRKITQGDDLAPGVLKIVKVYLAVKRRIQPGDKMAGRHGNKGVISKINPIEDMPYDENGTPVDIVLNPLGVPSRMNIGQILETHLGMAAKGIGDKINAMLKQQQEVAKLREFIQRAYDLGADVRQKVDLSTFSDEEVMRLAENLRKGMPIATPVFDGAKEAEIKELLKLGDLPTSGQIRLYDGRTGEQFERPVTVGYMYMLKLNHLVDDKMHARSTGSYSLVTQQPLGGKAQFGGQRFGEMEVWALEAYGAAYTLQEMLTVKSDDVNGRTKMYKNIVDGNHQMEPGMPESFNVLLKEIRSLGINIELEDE
Sequence (P0A8T7 whole entry partner): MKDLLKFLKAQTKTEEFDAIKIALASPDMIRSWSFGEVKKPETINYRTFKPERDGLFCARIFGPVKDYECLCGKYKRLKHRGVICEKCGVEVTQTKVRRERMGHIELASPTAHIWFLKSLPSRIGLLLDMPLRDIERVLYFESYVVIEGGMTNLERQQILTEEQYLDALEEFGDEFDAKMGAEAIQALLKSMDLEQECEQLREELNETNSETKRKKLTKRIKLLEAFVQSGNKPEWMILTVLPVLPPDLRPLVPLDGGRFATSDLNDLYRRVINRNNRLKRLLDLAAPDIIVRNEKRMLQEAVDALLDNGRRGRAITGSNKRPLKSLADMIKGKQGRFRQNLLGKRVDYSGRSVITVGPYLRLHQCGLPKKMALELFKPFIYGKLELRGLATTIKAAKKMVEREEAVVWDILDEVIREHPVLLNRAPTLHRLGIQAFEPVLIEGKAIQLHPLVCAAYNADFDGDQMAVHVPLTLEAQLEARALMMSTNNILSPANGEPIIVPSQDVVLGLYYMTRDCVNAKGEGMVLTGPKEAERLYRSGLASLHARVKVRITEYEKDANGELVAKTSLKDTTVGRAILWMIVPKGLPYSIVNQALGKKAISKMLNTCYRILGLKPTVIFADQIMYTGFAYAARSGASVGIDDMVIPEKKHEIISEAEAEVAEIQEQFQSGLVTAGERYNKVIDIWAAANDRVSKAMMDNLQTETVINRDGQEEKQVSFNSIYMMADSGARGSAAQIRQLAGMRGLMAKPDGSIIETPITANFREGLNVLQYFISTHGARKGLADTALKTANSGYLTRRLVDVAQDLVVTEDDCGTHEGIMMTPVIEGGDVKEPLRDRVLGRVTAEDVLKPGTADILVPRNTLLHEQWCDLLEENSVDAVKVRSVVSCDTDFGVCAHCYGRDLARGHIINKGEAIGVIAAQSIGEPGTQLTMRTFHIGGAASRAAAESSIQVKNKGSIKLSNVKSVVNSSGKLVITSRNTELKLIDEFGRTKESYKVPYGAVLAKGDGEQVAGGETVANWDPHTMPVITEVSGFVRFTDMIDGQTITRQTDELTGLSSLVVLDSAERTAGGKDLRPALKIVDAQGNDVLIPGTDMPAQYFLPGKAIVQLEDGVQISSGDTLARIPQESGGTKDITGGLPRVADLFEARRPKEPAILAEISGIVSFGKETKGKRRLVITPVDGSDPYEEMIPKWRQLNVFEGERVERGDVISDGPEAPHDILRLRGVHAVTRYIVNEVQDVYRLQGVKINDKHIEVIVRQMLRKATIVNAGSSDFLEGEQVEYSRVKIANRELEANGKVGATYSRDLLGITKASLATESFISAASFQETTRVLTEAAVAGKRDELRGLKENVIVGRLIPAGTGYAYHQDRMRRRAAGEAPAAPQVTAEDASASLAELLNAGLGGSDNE
Sequence (P0A7Z4 whole entry partner): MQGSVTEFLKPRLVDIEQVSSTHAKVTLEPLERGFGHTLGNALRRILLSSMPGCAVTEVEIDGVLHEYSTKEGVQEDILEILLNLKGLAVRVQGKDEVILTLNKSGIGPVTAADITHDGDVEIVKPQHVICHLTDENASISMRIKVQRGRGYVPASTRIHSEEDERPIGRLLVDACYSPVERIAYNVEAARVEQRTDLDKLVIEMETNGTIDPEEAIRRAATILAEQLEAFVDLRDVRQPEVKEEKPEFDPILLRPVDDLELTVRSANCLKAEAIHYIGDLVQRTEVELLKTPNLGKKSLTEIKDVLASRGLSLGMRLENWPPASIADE
Sequence (P0A800 whole entry partner): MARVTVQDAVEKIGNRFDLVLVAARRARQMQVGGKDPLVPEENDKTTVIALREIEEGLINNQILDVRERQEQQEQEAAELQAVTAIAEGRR
Assay: E. coli RNA Polymerase Inhibition
Type: biochemical
Conditions: 0.25 h; at a concentration of 0.5 μmole/ml (Table 4)
Description: The assay mixtures contained, in a total volume of 0.25 ml: (Tris)HCl buffer, pH 7.9, 5 μmoles; MgCl2, 1 μmole; mercaptoethanol, 3 μmoles; MpCl2, 0.25 μmole: GTP, UTP, and CTP, 0.1 μmole polymerase, 0.5 units; and […] of compound. Reactions were run a room temperature for 15 minutes. […]
Listed next: entries and their corresponding inhibition at 500 µM.
Use % as the unit, but write only the number.

COC1/C=C\C=C(/C)C(=O)Nc2cc3nc4ccc(C)cc4oc-3c(c2=O)CC(C)CC(OC)C(O)C(C)/C=C(\C)C1OC(N)=O (stereo not drawn); 21
COC1/C=C\C=C(/C)C(=O)Nc2cc3nc4cc(C)ccc4oc-3c(c2=O)CC(C)CC(OC)C(O)C(C)/C=C(\C)C1OC(N)=O (stereo not drawn); 9
COC1/C=C\C=C(/C)C(=O)Nc2cc3nc4cccc(C)c4oc-3c(c2=O)CC(C)CC(OC)C(O)C(C)/C=C(\C)C1OC(N)=O (stereo not drawn); 6

Lab note: measured inhibition at 500 µM of COC1/C=C\C=C(/C)C(=O)Nc2cc3nc4cc(Br)ccc4oc-3c(c2=O)CC(C)CC(OC)C(O)C(C)/C=C(\C)C1OC(N)=O (stereo not drawn) was 60
